tested on: NCI-H226 lung; test: NCI-60 one-dose screen, 48 h; conditions: 10 µM
This is part of a sample that, as a whole, favours compounds with a hit. Of some 83,000 tested, about 20% had one in any assay. Activity calls are given as the source filed them. The calls were made as follows: active = growth percent below 10; inactive = the rest.
Tick one outcome: active, inactive

Here's what some known entries look like.
{"columns": ["Compound", "Assigned Class"],
 "data": [
  ["c1ccc2c(c1)Cc1ccccc1N2CCN1CCCCC1", "inactive"],
  ["CC1/C=C/C=C/C=C/C=C/C=C/C=C/C=C/C(O[C@@H]2O[C@H](C)[C@H](O)[C@@H](O)[C@@H]2N)CC(O)C(C(=O)O)C(O)CC(=O)CC(O)CC(O)CC(O)CC(=O)CCCC(=O)CC(=O)OC1C(C)CC(C)C(O)CC(=O)c1ccc(N)cc1 (stereo partly drawn)", "active"]
]}

Per the assay record, what outcome was assigned to COc1ccc(N(C)c2ncnc3occ(C)c23)cc1 ? inactive

Per the assay record, what outcome was assigned to COc1ccc(C(=O)CSc2nc(-c3cc(OC)ccc3OC)cc(-c3ccc(OC)cc3)c2C#N)cc1 ? inactive

Per the assay record, what outcome was assigned to Cc1ccc(C(=O)/C=C/c2ccccc2)s1 ? inactive

Per the assay record, what outcome was assigned to CN1CCN(CCCn2c(=O)c3sc4ncccc4c3n3nnc(-c4ccccc4)c23)CC1 ? inactive

Per the assay record, what outcome was assigned to CCOC(=O)c1cc(C(=O)c2ccc(Cl)cc2)n2ccc(-c3cc[n+](CC(=O)c4ccc(OC)cc4)cc3)cc12 ? inactive

Per the assay record, what outcome was assigned to COc1ccc(/C=C/C(=O)C(=O)/C=C/c2ccc(OC)c(OC)c2)cc1OC ? inactive

Per the assay record, what outcome was assigned to O=C1/C(=C/c2ccc3c(c2)OCO3)SC(=S)N1C1c2ccccc2Oc2ccccc21 ? inactive

Per the assay record, what outcome was assigned to O=C(/C=C/c1cccc(B(O)O)c1)c1cccc(B(O)O)c1 ? active

Per the assay record, what outcome was assigned to CCOC(=O)CSc1nc(-c2cc(OC)ccc2OC)cc(-c2ccc(OC)cc2)c1C#N ? inactive

Per the assay record, what outcome was assigned to COc1cc2cc(Oc3ccc(NC(=O)Nc4cccc(C(F)(F)F)c4)cc3)c(C)nc2cc1OC ? active

Per the assay record, what outcome was assigned to Nc1cc(-c2ccc(Cl)cc2)nn1-c1nc2ccccc2nc1Cc1ccccc1 ? inactive

Per the assay record, what outcome was assigned to CCCCc1oc2ccccc2c1C(=O)c1cc(I)c(OCCN(CC)CC)c(I)c1 ? active

Per the assay record, what outcome was assigned to COc1ccc(-c2cc(-c3ccc(OC)c(OC)c3)nc(SCCCC(=O)NO)n2)cc1 ? active

Per the assay record, what outcome was assigned to Cc1c(O)c(=O)ccn1C1CCC(CC2CCC(n3ccc(=O)c(O)c3C)CC2)CC1 (stereo not drawn) ? inactive

Per the assay record, what outcome was assigned to O[C@@H]1CO[C@H]2[C@@H]1OC[C@@H]2O ? inactive

----------
tested on: TK-10 renal; assay: NCI-60 one-dose screen, 48 h; details: 10 µM
This is part of a sample that, as a whole, favours compounds with a hit. Of some 83,000 tested, about 20% had one in any assay. Activity calls are given as the source filed them. How the source made its calls: active means growth percent below 10; inactive means the rest.
Tick one outcome: active, inactive

Here's what some known entries look like.
{"columns": ["Compound", "Assigned Class"],
 "data": [
  ["O=C(CCl)Nc1ccc(Cc2ccc(NC(=O)CCl)cc2)cc1", "inactive"],
  ["COc1ccc(C(=O)CSc2nc(-c3cc(OC)ccc3OC)cc(-c3ccc(OC)cc3)c2C#N)cc1", "inactive"],
  ["COC(=O)c1c[nH]c2cc(OC(C)C)c(OC(C)C)cc2c1=O", "inactive"],
  ["O=C(CCCCCCC(=O)Nc1ccccc1)NO", "active"],
  ["O=C(NCCCNS(=O)(=O)c1ccc(Cl)cc1)Nc1ccc(-n2cc(-c3ccncc3)c(-c3ccc(Cl)c(O)c3)n2)cc1", "inactive"],
  ["CC(=O)O[C@@]12CO[C@@H]1C[C@H](O)[C@@]1(C)C(=O)[C@H](O)C3=C(C)[C@@H](OC(=O)[C@H](O)[C@@H](NC(=O)OC(C)(C)C)c4ccccc4)C[C@@](O)([C@@H](OC(=O)c4ccccc4)C12)C3(C)C (some centres undefined)", "inactive"],
  ["C=CCSC(CC)(CC)C(=O)NC", "inactive"],
  ["CC(=O)[C@H]1CC[C@]2(C)[C@@H]1CC[C@@H]1[C@@]3(C)CC(CCC#N)(CCC#N)C(=O)C(C)(C)[C@@H]3CC[C@]12C", "inactive"]
]}

Per the assay record, what outcome was assigned to Cc1cn(-c2cccc(NC(=O)c3ccc(C)c(Nc4nccc(-c5cccnc5)n4)c3)c2)cn1 ? active

Per the assay record, what outcome was assigned to COc1cc(NC(=O)C2=C(N3CCOCC3)/C(=C/c3ccc(Cl)cc3)CC2)cc(OC)c1OC ? inactive

Per the assay record, what outcome was assigned to CCOC(=O)C1=CSC2=NC3=C(CCC/C3=C\c3cc(OC)c(OC)c(OC)c3)C(c3cc(OC)c(OC)c(OC)c3)N12 (centres undefined) ? inactive

Per the assay record, what outcome was assigned to O=C(O)c1ccc(-n2cc(CNc3ccc(Cl)cc3)c(-c3ccccc3)n2)cc1 ? inactive

Per the assay record, what outcome was assigned to CCNCC(=O)Nc1ccc(C(=O)OCC)cc1 ? inactive

----------
# growth listing for each entry below
tested on: NCI-H226 lung; test: NCI-60 one-dose screen, 48 h (100 = growth as untreated, 0 = no growth, -100 = all killed); conditions: 10 µM
The panel holds about 83,000 compounds, 20% with a hit somewhere; the sample as a whole holds those more often.
Value expressed in %; do not type the unit.

// known answers, use as guide
{"columns": ["Compound", "Endpoint Unit", "Assay Value"],
 "data": [
  ["CN(C)CCN(Cc1ccccc1)c1ccc2ccccc2n1", "%", 111],
  ["O=C1OC(C(Cl)(Cl)Cl)OC1C(Cl)(Cl)Cl (stereo unspecified)", "%", 110],
  ["CC(=O)[C@H]1CC[C@]2(C)[C@@H]1CC[C@@H]1[C@@]3(C)CC(CCC#N)(CCC#N)C(=O)C(C)(C)[C@@H]3CC[C@]12C", "%", 94.6],
  ["CN(C)c1nc(N)c2nccnc2n1", "%", 105],
  ["CCOC(=O)c1cocc1C(=O)O", "%", 102]
]}

Summary for this compound, COc1ccccc1-n1c(-c2sc(NC(C)=O)nc2C)n[nH]c1=S : growth is 106

----------
tested on: MDA-MB-435 melanoma; assay: NCI-60 one-dose screen, 48 h (100 = growth as untreated, 0 = no growth, -100 = all killed); conditions: 10 µM
About 83,000 compounds went through this panel and 20% of them were active in at least one assay; those are over-represented in the sample as a whole.
Observable: growth (%)
Value expressed in %; do not type the unit.

{"columns": ["Molecule", "Observable", "Assay Value"],
 "data": [
  ["CS(=O)(=O)c1nccc(-c2c(-c3ccc(OCCc4ccccc4)cc3)nc3sccn23)n1", "growth", 96],
  ["c1cnc2[nH]cc(-c3nc(-c4ccsc4)cs3)c2c1", "growth", 98.3],
  ["COc1cc(C(=O)N2CCN(c3cc4c(cc3F)c(=O)c(C(=O)NO)cn4C3CC3)CC2)cc(OC)c1OC", "growth", 105],
  ["C[n+]1c2ccccc2nc2ccccc21", "growth", -40.9],
  ["CNS(=O)(=O)Oc1ccc(-c2sc3cc(OS(=O)(=O)NC)ccc3c2C(=O)c2ccc(OCCN3CCCCC3)cc2)cc1", "growth", 70]
]}

Record Clc1ccc(C2=NN=C3C(Cc4ccccc4)=Nc4ccccc4N3C2)cc1 / MDA-MB-435 melanoma, growth recorded as 73

Record COc1ccc(-c2n[nH]nc2-c2cc(OC)c(OC)c(OC)c2)cc1 / MDA-MB-435 melanoma, growth recorded as 4.87

Record O=C(CCl)Oc1ccc(OC(=O)CCl)cc1 / MDA-MB-435 melanoma, growth recorded as 85.3

----------
system: ACHN renal; assay: NCI-60 one-dose screen, 48 h (100 = growth as untreated, 0 = no growth, -100 = all killed); conditions: 10 µM
Compounds without any hit were thinned out: in the full panel of roughly 83,000, 20% have a hit.
# growth listing for each entry below
Value expressed in %; do not type the unit.

// known answers, use as guide
{"columns": ["Compound", "Observable", "Endpoint Unit", "Assay Value"],
 "data": [
  ["CCNc1nc(C(F)(F)F)nc2c1sc(=S)n2-c1ccccc1", "growth", "%", 93.1],
  ["O=c1oc2c(cc1-c1ccc(F)cc1)C(O)Oc1ccccc1-2 (stereo not given)", "growth", "%", 94.4],
  ["C[C@]12CCC3c4ccc(O)cc4C[C@@H](CCCCCCCCCS(=O)CCCC(F)(F)C(F)(F)F)C3C1CC[C@@H]2O (stereo not given in full)", "growth", "%", 74.3]
]}

Next, consider the following compound.
Summary for this compound, C=CCn1c(SCC(=O)Nc2ccc(C(=O)/C=C/c3cc(OC)c(OC)c(OC)c3)cc2)nnc1-c1cc(-c2ccc(Cl)cc2)nc2ccccc12 : growth is 86.1
